Target: P. falciparum apicoplast DNA polymerase (Pf-apPOL) (Plasmodium falciparum)
Sequence (Q8ILY1 entry or part of it): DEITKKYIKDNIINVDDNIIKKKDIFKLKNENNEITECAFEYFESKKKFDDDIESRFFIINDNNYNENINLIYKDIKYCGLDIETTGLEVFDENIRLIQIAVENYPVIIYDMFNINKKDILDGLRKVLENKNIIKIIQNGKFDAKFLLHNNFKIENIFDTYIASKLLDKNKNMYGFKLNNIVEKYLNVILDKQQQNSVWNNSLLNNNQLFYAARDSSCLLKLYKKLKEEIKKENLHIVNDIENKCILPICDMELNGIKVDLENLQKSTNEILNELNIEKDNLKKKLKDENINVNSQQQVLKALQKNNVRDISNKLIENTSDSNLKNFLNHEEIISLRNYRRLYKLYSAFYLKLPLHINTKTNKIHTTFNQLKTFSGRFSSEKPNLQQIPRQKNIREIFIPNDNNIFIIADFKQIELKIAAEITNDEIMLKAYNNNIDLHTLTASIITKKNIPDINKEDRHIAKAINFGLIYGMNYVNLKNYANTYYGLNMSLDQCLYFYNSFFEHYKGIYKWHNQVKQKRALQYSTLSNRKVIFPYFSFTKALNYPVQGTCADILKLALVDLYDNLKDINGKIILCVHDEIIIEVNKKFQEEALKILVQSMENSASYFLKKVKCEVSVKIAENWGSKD
Experiment: Fluorescence-based high-throughput DNA polymerase assay (molecular beacon), primary screen and dose-response;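 note: test concentration in µM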
Format: biochemical
Conditions: DRC-2; 90'; concentration 2.5
Description: The HT assay employs a molecular beacon, a stem-loop DNA template with a Cy3 dye and the Black Hole Quencher on the 3′ and 5′ ends of the DNA, respectively. Pf-apPOL concentration is based on a calculated absorptivity of ε280 = 56750 M^−1 cm^−1. […] To identify apPOL inhibitors we utilised our previously developed high-throughput DNA polymerase assay. […] The assay accurately recapitulates the kinetic behaviour of apPOL, as measured through more conventional low-throughput gel-based assays. […]
What % inhibition ApPOL 90' was measured for each of the following?
Answers are plain numbers, in %.

>  <COMPOUND>
N#CC(=NNc1cc(C(F)(F)F)cc(C(F)(F)F)c1)C(=O)c1ccco1

>  <EXPERIMENTAL VALUE>
4.34

$$$$
>  <COMPOUND>
O=C1c2ccccc2C(=O)c2c1oc1c3c(ccc21)OCN(C1CCCC1)C3

>  <EXPERIMENTAL VALUE>
17

$$$$
>  <COMPOUND>
Cc1cccc2c(C(=O)NC(C)C)cc(N(C)C)nc12

>  <EXPERIMENTAL VALUE>
6

$$$$
>  <COMPOUND>
O=C1N/C(=N/c2ccccc2Cl)S/C1=C/c1ccc([N+](=O)[O-])o1

>  <EXPERIMENTAL VALUE>
11

$$$$
>  <COMPOUND>
O=C1N=C(Nc2cccc(Cl)c2Cl)S/C1=C\c1ccco1 [Molecule 3, O=C1N=C(S/C/1=C\c1ccco1)Nc1cccc(c1Cl)Cl]

>  <EXPERIMENTAL VALUE>
34

$$$$
>  <COMPOUND>
O=C(Nc1cccc(Cl)c1)Nc1nnc(-c2ccncc2)s1

>  <EXPERIMENTAL VALUE>
16

$$$$
>  <COMPOUND>
O=C1c2ccccc2C(=O)N1Oc1ccc([N+](=O)[O-])c([N+](=O)[O-])c1

>  <EXPERIMENTAL VALUE>
5

$$$$

// below: % inhibition ApPOL 90' requested for another compound
Query: Form field - read-out: % inhibition ApPOL 90'; system: P. falciparum apicoplast DNA polymerase (Pf-apPOL) (Plasmodium falciparum); submitted item: "O=c1cc(-c2ccccc2Cl)oc2c(NS(=O)(=O)c3cc(Cl)cc(Cl)c3O)ccc(O)c12"
Response: -1
